# Tested on: Plasmodium berghei
# test.summary: Screen against P. berghei liver stage (PbLuc), transformed with Luciferase, at 10uM
# Assay type: functional, HepG2
# assay.conditions: tested at 10 uM
Hit rate of the full screen: of about 69,000 compounds, about 8,600 (12%) showed an effect of 50% or more. The entries come from a sample that favours strong results as a whole.
property: INHIBITION (%)
Express your answer in %, writing the number without its unit.

Noted for CN(C)CCOC1CC2(CCN(c3cnccn3)CC2)c2ccccc21 (stereo not drawn) : its INHIBITION reads 31.9

Further cases:
Kindly note the recorded INHIBITION for CN(C(=O)c1cccc(C#N)c1)c1nnc(C2CCOC2)s1 (stereo not drawn) , which is 24.45

Recorded result, CN(C)Cc1cc(=O)n2c(n1)CN(S(=O)(=O)C1CC1)CCC2 , INHIBITION: 21.6

Lab note: measured INHIBITION of CC1CCCN(C(=O)c2occc2COc2cccc(C#N)c2)C1 (stereo not drawn) was 35.1

---

# System: Plasmodium berghei
# test.summary: Screen against P. berghei liver stage (PbLuc), transformed with Luciferase, at 10uM
# Assay type: functional, HepG2
# assay.conditions: tested at 10 uM
Screen size: about 69,000 compounds; about 8,600 (12%) showed an effect of 50% or more. Shown is part of a subset that was picked to be rich in strong results.
property: INHIBITION (%)
Kindly answer with a numeric value in %, unit omitted.

The examples below pair each entry with its known result.
# CCc1noc(C(C)N2CCN(S(=O)(=O)N3CCCC3)CC2)n1 (stereo unspecified) with Plasmodium berghei: INHIBITION is -11.4

Value (INHIBITION, Plasmodium berghei) for record Cn1cc(CN2C[C@@H]3COC[C@]3(C(=O)NCc3ccccn3)C2)cn1 = 13.7

Lab entry: Plasmodium berghei assay, compound CN(Cc1ccc(F)cc1)C(=O)CN1CCCCC1Cn1cncn1 (stereo unspecified) , INHIBITION = 48.4

Item: O=S(=O)(CC1CCCO1)Nc1cc(Cl)ccc1-n1cccn1 (stereo unspecified) | System: Plasmodium berghei | INHIBITION: -15.5

Entry COCCC(=O)N1CCCC2(CCCN2Cc2ccccc2F)C1 (stereo unspecified) : INHIBITION on Plasmodium berghei = 19.5

Param item: COc1cccc(CC(=O)N2CCC3(CC2)OCCCC3O)c1OC (stereo unspecified) ; param system: Plasmodium berghei; output INHIBITION: 69.7

So the reported INHIBITION for Cc1cc(C)cc(N2CCN(C(=O)CCN3C[C@H]4CC[C@@H]3C4)CC2=O)c1 , on Plasmodium berghei, turned out to be 22.1

Entry COCCn1ccc2cc(C(=O)NC3CCOC(C)(C)C3)ccc21 (stereo unspecified) : INHIBITION on Plasmodium berghei = -16.5

Per the reported Plasmodium berghei data, CC[C@@H](Cn1ncc2ccccc2c1=O)NC(=O)c1ccco1 has INHIBITION of 34.1

Param item: O=C(c1cn(-c2ccccc2)nn1)N1CCOCC(O)C1 (stereo unspecified) ; param system: Plasmodium berghei; output INHIBITION: -28.1

Now turn to the next compound.
Form: item CC(C)OCCN1CCN(C(C)c2nc(C3CC3)no2)CC1 (stereo unspecified) ; test system Plasmodium berghei; INHIBITION: 33.6
